I'd be grateful if you could share measured IC50 for these entries.
test system: LNCaP; experiment: Cell growth inhibition assay, prostate cancer cell line LNCaP (medium with 10 ng/mL IL-6); assay type: cell-based; conditions: Homo sapiens, medium supplemented with 10 ng/mL of IL-6, 10,000 cells/well
Numbers only, in µM.

Sample answers from the record:
# Compound, Test system, Readout, Reported result
rows = [
    ("COc1cc(F)cc(Oc2cc(Cl)cc(NC(=O)c3cc4cc(NS(C)(=O)=O)c(Cl)cc4s3)c2)c1 [Example 484]", "LNCaP", "IC50", 0.037),
    ("CC(C)(c1cc(Cl)cc(NC(=O)c2cc3cc(NS(C)(=O)=O)ccc3s2)c1)c1cc(OCC(F)F)cc(OC(F)(F)F)c1 [Example 83]", "LNCaP", "IC50", 0.025),
    ("COc1cccc(C(C)(C)c2cccc(NC(=O)c3cc4cc(NS(C)(=O)=O)ccc4s3)c2)c1 [Example 38]", "LNCaP", "IC50", 0.8),
    ("C#Cc1cc(NC(=O)c2cc3ccc(NS(C)(=O)=O)cc3[nH]2)cc(-c2ccc(F)cc2F)c1 [Example 365]", "LNCaP", "IC50", 2.8),
    ("CC(C)(c1ccc(F)cc1)c1cc(Cl)cc(NC(=O)c2cc3cc(NS(C)(=O)=O)c(Cl)cc3s2)c1 [Example 182]", "LNCaP", "IC50", 0.018),
]

Please go through the list and note IC50 for each compound.
1. CS(=O)(=O)Nc1ccc2sc(C(=O)Nc3cc(Cl)cc(Oc4cccc(C(F)(F)F)c4)c3)cc2c1 [Example 455]
2. CC(C)Oc1cc(OC(F)(F)F)cc(C(C)(C)c2cc(I)cc(NC(=O)c3sc4ccc(NS(C)(=O)=O)cc4c3I)c2)c1 [Example 214]

[0.22, 0.99]
